- Organism: Homo sapiens
- assayProcedure: Compound was tested for inhibition of monoclonal antibody complex (MAO B - MAO B 1C2) from human autopsy liver expressed as specific activity
Reported Specific activity (nM min-1 mg-1) values are given for each entry in this list.
Please respond with just the number, no unit label.

Before answering, review these 3 worked examples.
# compound, assayResult
data = [
    ("CC1CN(C)CC=C1c1ccccc1 (centres undefined)", 11.4),
    ("CN1CC=C(c2ccccc2)CC1", 85.2),
    ("CC1=C(c2ccccc2)CCN(C)C1", 5.3),
]

[ask] I have this compound here, C1=C(c2ccccc2)CCN(CCc2ccccc2)C1 , and I need its recorded Specific activity (nM min-1 mg-1).
[reply] 0
